Target: T1, IL-18Rα/β heterodimer (Fc fused human IL-18Rα mixed with Fc fused human IL-18Rβ) (human, UniProt Q13478 19-329; O95256 20-356, limits assumed)
T1 construct: Alpha and beta Fc fusions were mixed and pre-incubated for 30 min before capture on anti-human IgG; also called alpha/beta heterodimer IL-18 receptor; heterodimeric human IL-18 receptor alpha (CD218a) and IL-18R accessory protein (IL-18RAP/CDw218b); not shown: Fc
T1 sequence (looked up) 1: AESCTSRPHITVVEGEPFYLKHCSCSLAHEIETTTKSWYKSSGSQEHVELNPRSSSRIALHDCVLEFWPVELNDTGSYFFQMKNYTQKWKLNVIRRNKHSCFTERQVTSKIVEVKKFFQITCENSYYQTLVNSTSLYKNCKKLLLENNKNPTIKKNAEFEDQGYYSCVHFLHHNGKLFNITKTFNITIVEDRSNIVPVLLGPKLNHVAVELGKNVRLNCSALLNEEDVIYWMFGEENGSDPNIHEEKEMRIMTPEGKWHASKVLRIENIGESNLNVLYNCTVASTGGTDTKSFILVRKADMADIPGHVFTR
T1 sequence (looked up) 2: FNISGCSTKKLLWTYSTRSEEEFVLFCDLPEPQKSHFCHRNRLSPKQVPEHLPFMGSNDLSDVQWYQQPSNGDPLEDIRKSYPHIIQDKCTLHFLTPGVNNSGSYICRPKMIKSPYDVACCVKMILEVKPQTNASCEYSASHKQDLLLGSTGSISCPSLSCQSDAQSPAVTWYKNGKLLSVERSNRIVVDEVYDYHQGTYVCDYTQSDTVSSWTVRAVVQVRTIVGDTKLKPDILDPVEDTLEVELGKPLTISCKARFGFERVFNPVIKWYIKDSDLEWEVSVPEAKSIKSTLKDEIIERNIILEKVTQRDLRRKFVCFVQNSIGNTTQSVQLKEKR
Test: SPR, Fc-IL-18Rα/β captured, heterogeneous ligand fit
The entries below come with measured koff values attached.
Give your result as the value with the unit written after it.

>  <binder>
IL-18 variant SEQ ID NO: 30 (E6K, V11I, C38A, K53A, T63A, C76A, C127A) (ligand) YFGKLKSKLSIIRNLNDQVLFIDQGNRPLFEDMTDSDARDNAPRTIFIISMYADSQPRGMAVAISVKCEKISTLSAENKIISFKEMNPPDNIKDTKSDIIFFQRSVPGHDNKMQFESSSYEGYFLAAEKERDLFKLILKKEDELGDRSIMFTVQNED

>  <result-type>
koff

>  <reported-measurement>
0.000311 s⁻¹

$$$$

Lab note: next binder to report on.
Given item IL-18 variant SEQ ID NO: 59 with 30 kDa PEG (E6K, C38A, K53A, C68-30kDPEG) (ligand, 30 kDa PEG on Cys 68 (C68-30kDPEG), also called 59 + PEG30; 59 + PEG) YFGKLKSKLSVIRNLNDQVLFIDQGNRPLFEDMTDSDARDNAPRTIFIISMYADSQPRGMAVTISVKCEKISTLSCENKIISFKEMNPPDNIKDTKSDIIFFQRSVPGHDNKMQFESSSYEGYFLACEKERDLFKLILKKEDELGDRSIMFTVQNED , the value recorded as its koff is 0.00058 s⁻¹
